Assay: Tissue distribution of curcumin and THC at necropsy 15 minutes post-infusion
Parameters: species or system Beagle dogs
Conditions: both sexes, beagle, dog, in vivo, 10 mg/kg, 2 hr infusion; H3PO4 stabilized; read-out: Kp [tissue]/[plasma], Striatum
ASSAY METRIC: Kp at 2 h

Documented Kp at 2 h of COc1cc(CCC(=O)CC(=O)CCc2ccc(O)c(OC)c2)ccc1O [THC, tetrahydrocurcumin] : 0.0039

----------
Assay: Tissue distribution of curcumin and THC at necropsy 15 minutes post-infusion
Design: species or system Beagle dogs
Conditions: both sexes, beagle, dog, in vivo, 10 mg/kg, 2 hour infusion; Plus H3PO4; read-out: Tissue level, Hippocampus
ASSAY METRIC: concentration at 15 min (ng/g)
Kindly provide the numeric value in ng/g only, without the unit symbol.

Lab note: measured concentration at 15 min of COc1cc(CCC(=O)CC(=O)CCc2ccc(O)c(OC)c2)ccc1O [THC, tetrahydrocurcumin] was 6.46

----------
Test: Tissue distribution of curcumin and THC at necropsy 15 minutes post-infusion
Set-up: species or system Beagle dogs
Settings: both sexes, beagle, dog, in vivo, 10 mg/kg, 8 hour infusion; Plus H3PO4; read-out: Tissue level, Striatum
ASSAY METRIC: concentration at 15 min
In your response, put the unit directly after the numeric value.

Measured concentration at 15 min of COc1cc(CCC(=O)CC(=O)CCc2ccc(O)c(OC)c2)ccc1O [THC, tetrahydrocurcumin] : 3.14 ng/g

----------
Assay: Tissue distribution of curcumin and THC at necropsy 15 minutes post-infusion
Set-up: species or system Beagle dogs
Conditions: both sexes, beagle, dog, in vivo, 10 mg/kg, Table 14, 2 hour infusion; −H3PO4; read-out: Tissue analysis, Striatum
ASSAY METRIC: concentration at 15 min (ng/g)
Numeric answer only, unit ng/g assumed.

In plain terms, COc1cc(CCC(=O)CC(=O)CCc2ccc(O)c(OC)c2)ccc1O [THC, tetrahydrocurcumin] has a documented concentration at 15 min of 6.21

----------
Test: in vivo
Parameters: species or system Beagle dogs
Settings: both sexes, beagle, dog, in vivo, Average tissue concentration, Bladder
ASSAY METRIC: concentration at 15 min (ng/g)
Your answer is read as ng/g, so omit the unit and give the number.

Field concentration at 15 min (entry COc1cc(/C=C/C(=O)CC(=O)/C=C/c2ccc(O)c(OC)c2)ccc1O [Curcumin, reference compound] ) reads 0.66

----------
Experiment: Plasma pharmacokinetics of curcumin and THC during and after intravenous infusion of liposomal curcumin
Type: in vivo, Beagle dogs
Conditions: both sexes, Beagle, dog, in vivo, 10 mg/kg, 1.25 mg/kg/hr; 2 hr; mean±SE; read-out: [Plasma + PO4]
ASSAY METRIC: concentration at 2 hr (ng/mL)
Could you give me the number in ng/mL? Just the number is fine.

Data point: COc1cc(CCC(=O)CC(=O)CCc2ccc(O)c(OC)c2)ccc1O [THC, tetrahydrocurcumin] ; concentration at 2 hr = 226

----------
Assay: in vivo
Format: in vivo, Beagle dogs
Conditions: both sexes, beagle, dog, in vivo, iv, 10 mg/kg, AUC
ASSAY METRIC: AUC (ng·h/mL)
Write the value in ng·h/mL as a bare number.

GET /value?item= COc1cc(/C=C/C(=O)CC(=O)/C=C/c2ccc(O)c(OC)c2)ccc1O [Curcumin, reference compound] &field=AUC returns 65
